Test system: K-562 leukemia
assay.comment: NCI tumour cell line growth inhibition, 48 h
endpoint: TGI

Illustrative cases are given below, each with its answer.
compound: O=C(O)CSC1=NNC2(C(=O)N1)c1ccccc1-c1ccccc12
TGI: > 10 µM
--
compound: CC/C=C/c1cc2c(cc1O)CCC1C2CC[C@@]2(C)C1CC[C@@H]2O (stereo not given in full)
TGI: 7.66 µM
--
compound: Cc1cc(C)c2c(c1)C/C(=C\c1cccc(C)c1C(=O)O)C2=O
TGI: > 100 µM
--
compound: COC(=O)CCC(=O)NC1=C(Nc2ccccc2)C(=O)c2ccccc2C1=O
TGI: > 57.6 µM

With those in mind, consider the next compound.
Exam item: Fill blank: measured TGI of the compound COc1cc(F)c(F)cc1C(=O)c1cnc(NC2CCN(S(C)(=O)=O)CC2)nc1N is ____.
Marked response: > 25 µM

###

Tested on: M14 melanoma
assay.comment: NCI tumour cell line growth inhibition, 48 h; in the data active = GI50 below about 0.43 µM; inactive = the rest
Answer with one of the outcomes given here: active, inactive

compound: Cc1ccc(S(=O)(=O)n2cc([C@@]3(O)C[C@H](CSC#N)OC3=O)c3ccccc32)cc1
group: inactive
--
compound: CCOC(=O)c1c(-c2ccccc2)[n+](=O)c2cc(F)c(F)cc2n1[O-]
group: inactive
--
compound: CCC[CH2][Sn]([CH2]CCC)([CH2]CCC)/[C](=C/[Si](C)(C)c1ccccc1)c1ccc2c(c1)OCO2
group: inactive
--
compound: COc1cc(OC)c2c(=O)cc(-c3ccccc3OCc3ccccc3)oc2c1OC
group: inactive
--
compound: CC(C)[P+](c1ccccc1)(c1ccccc1)c1ccccc1
group: inactive
--
compound: COc1ccc(Nc2ncnc3ccc(-c4cncc(NS(C)(=O)=O)c4)cc23)cc1Cl
group: inactive
--
compound: OCCCCC#Cc1ccccc1C#Cc1cccnc1
group: inactive
--
compound: CC1CCCC(C#N)(NOC2=NCCN2)C1 (configuration not stated)
group: inactive
--
compound: CCN(CC)CCCNCc1cc(-c2ccccc2)nc2cc(Cl)ccc12
group: inactive
--
compound: CC(=O)c1c[nH]c2ccc(-c3ccnc(Nc4ccc(NC(=O)C5CCCC5)c(CN5CCOCC5)c4)n3)cc12
group: active

Exam item: Given O=C1NC(=O)C(=Cc2cn(Cc3ccccc3)c3ccccc23)C(=O)N1 , state the outcome it received in this test.
Marked response: inactive

Exam item: Given CC(C)(C)c1ccc(C2CC(=O)C3=C(C2)Nc2ccccc2N(C(=O)c2ccccc2Cl)C3c2ccc(F)cc2)cc1 (configuration not stated) , state the outcome it received in this test.
Marked response: inactive

Exam item: Given O=C(Nc1ccc(-n2cc(-c3ccncc3)c(-c3ccc(O)c(Cl)c3)n2)cc1)c1ccc(Cl)c(C(F)(F)F)c1 , state the outcome it received in this test.
Marked response: inactive

Exam item: Given Cc1c(Nc2nccc3cc(CN4CC[C@@H](O)C4)cnc23)cccc1-c1cccc(-c2nc3cc(CN4CC[C@@H](C(=O)O)C4)cc(C#N)c3o2)c1C , state the outcome it received in this test.
Marked response: inactive

Exam item: Given COC1=C(OC)C(=O)C(C/C=C(\C)CC/C=C(\C)CC/C=C(\C)CC/C=C(\C)CC/C=C(\C)CC/C=C(\C)CC/C=C(\C)CC/C=C(\C)CC/C=C(\C)CCC=C(C)C)=C(C)C1=O , state the outcome it received in this test.
Marked response: inactive

Exam item: Given C=C(C(=O)OC)[C@@H]1CC2OC1C(=O)C(C)CCC/C(C)=C/CC[C@@]2(C)O (some centres not stated) , state the outcome it received in this test.
Marked response: inactive

Exam item: Given CC(C)=Cc1cc(C)c2ccc(C)c3c2c1C(C)=C(O)C3=O , state the outcome it received in this test.
Marked response: inactive
